target: T1, His-tagged PD-L1 protein (human, UniProt Q9NZQ7 19-238); assay: SPR, Biacore T200, full-length IgG, 1:1 interaction model
T1 construct: also called His-tagged antigen PD-L1 protein; human PD-L1; not shown: His tag
T1 sequence (Q9NZQ7 19-238 limits assumed): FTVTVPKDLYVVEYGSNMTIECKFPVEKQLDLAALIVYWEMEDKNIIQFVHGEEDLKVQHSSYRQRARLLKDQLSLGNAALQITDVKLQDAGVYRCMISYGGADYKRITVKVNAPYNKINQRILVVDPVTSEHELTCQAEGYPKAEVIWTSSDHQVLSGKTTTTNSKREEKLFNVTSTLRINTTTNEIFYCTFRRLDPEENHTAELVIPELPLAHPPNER
MEASUREMENT KIND: koff
Include the unit after the number when you answer.

# BINDER, koff
data = [
    ("AS01790 (humanized full-length IgG) (antibody, V domains shown, Full-length IgG expressed in HEK293 cells, protein A purified) VH: EVQLVQSGAEVKKPGESLKISCKGSGYSFTSYSINWVRQMPGKGLEWMGYFYVGNGYTDYNEKFKGRVTMTRNTSISTAYMELSSLRSEDTAVYYCARGGLPYYFDYWGQGTLVTVSS VL: DIQMTQSPSTLSASVGDRVTITCKTSQDVNTAVAWYQQKPGKAPKLLIYWASTRHTGVPSRFSGSGSGTEFTLTISSLQPEDFATYYCQQHYNTPLTFGGGTKLEIKR", "0.000253 s⁻¹"),
    ("AS02013 (humanized full-length IgG) (antibody, V domains shown, Full-length IgG expressed in HEK293 cells, protein A purified) VH: EVQLVQSGAEVKKPGESLKISCKGSGYSFTSYSINWVRQAPGKGLEWMGYFYVGNGYTDYNEKFKGRVTMTRNTSISTAYMELSSLRSEDTAVYYCARGGLPYYFDYWGQGTLVTVSS VL: DIQLTQSPSSLSASVGDRVTITCKTSQDVNTAVAWYQQKPGQAPRLLIYWASTRHTGVPSRFSGSGSGTDFTLTISSLQPEDFATYYCQQHYNTPLTFGGGTKLEIKR", "0.000276 s⁻¹"),
    ("AS01814 (humanized full-length IgG) (antibody, V domains shown, Full-length IgG expressed in HEK293 cells, protein A purified) VH: QVQLVQSGSELKKPGASVKVSCKASGYTFTSYSINWVRQAPGKGLEWVAYFYVGNGYTDYNEKFKGRVTITADESTSTAYMELSSLRSEDTAVYYCARGGLPYYFDYWGQGTLVTVSS VL: DIQMTQSPSTLSASVGDRVTITCKTSQDVNTAVAWYQQKPGKAPKLLLYWASTRHTGIPARFSGSGSGTEFTLTISSLQSEDFAVYYCQQHYNTPLTFGGGTKLEIKR", "0.000173 s⁻¹"),
]

binder murine-human chimeric antibody derived from murine PDL1#10 (Chimeric IgG) (antibody, V domains shown, also called mouse-human chimeric antibody) VH: EVQLQQSGAELVRPGSSVKMSCKTSGYTFTSYSINWVKQRPGQGLEWIAYFYVGNGYTDYNEKFKGKATLTSDTSSSTAYMQLSSLTSEDSAIYFCARGGLPYYFDYWGQGTTLTVSS VL: DIVMTQSHKFMSTSVGDRVSITCKTSQDVNTAVAWYQQKPGHSPKLLFYWASTRHTGVPDRFTGGGSGTDYTLTISSVQAEDLALYYCQQHYNTPLTFGAGTRLELKR , koff observed: 0.000338 s⁻¹
